Measurement target: D2 receptor (Rattus norvegicus, UniProt P61169)
Construct: Freezed corpus striatum dissected out from rats were homogenized; from tissue; host or cells: rat corpus striatum, crude synaptosome membranes
Sequence (P61169 whole entry): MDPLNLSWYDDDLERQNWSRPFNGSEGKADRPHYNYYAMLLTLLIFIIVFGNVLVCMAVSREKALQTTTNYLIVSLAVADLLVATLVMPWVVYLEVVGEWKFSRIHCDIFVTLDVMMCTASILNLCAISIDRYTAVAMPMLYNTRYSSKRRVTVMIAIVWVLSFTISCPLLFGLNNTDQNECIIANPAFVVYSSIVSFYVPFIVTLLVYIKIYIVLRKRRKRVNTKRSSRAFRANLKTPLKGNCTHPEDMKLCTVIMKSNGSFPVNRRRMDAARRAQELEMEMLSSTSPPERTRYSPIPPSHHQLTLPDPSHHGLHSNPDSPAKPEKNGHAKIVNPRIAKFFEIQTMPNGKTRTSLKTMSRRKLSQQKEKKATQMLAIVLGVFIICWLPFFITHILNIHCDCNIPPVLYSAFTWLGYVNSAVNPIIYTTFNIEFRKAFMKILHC
Test description: Affinity for Dopamine 2 (D2) receptor, 3H-Spiperone binding test (rat corpus striatum)
Value kind: pIC50
Lab note — pIC50 values are minus log10 of concentrations in M.

Note to self: pIC50 recorded for CSc1[nH]c2cccc3c2c1C[C@@H]1C(=C3)[C@@H](C)CN1C [Example 5] was 6.07

Entry C[C@H]1CN(C)[C@@H]2C[C@@H]3CNc4ccc(Br)c(c43)C=C21 [Example 39] — recorded pIC50 = 6.89

----------
Kindly state IC50 for each of the entries shown.
Measurement target: D1 receptor
Test description: D1 receptor binding (Binding Profile table)
Give your result in µM as a bare value.

Recorded IC50 (molecule C[C@H]1CN(C)[C@@H]2Cc3c[nH]c4cccc(c34)C=C21 ): 1.85

Short answer for C[C@H]1CN(C)[C@@H]2Cc3c(Br)[nH]c4cccc(c34)C=C21 : IC50 was 1.92

C[C@H]1CN(C)[C@@H]2C[C@@H]3CNc4ccc(Br)c(c43)C=C21 has a reported IC50 of 7.1

// C[C@H]1CN(C)[C@@H]2C[C@@H]3CNc4ccc([N+](=O)[O-])c(c43)C=C21 : IC50 value = 2.75

Reported IC50 ( CSc1[nH]c2cccc3c2c1C[C@@H]1C(=C3)[C@@H](C)CN1C ) = 2.54

----------
Assignment: determine reported IC50 for the given compounds.
Measurement target: 5-HT1A receptor (Rattus norvegicus)
Construct: Freezed hippocampus dissected out from rats were homogenized; from tissue; host or cells: rat hippocampus, crude synaptosome membranes
Sequence (P19327 whole entry): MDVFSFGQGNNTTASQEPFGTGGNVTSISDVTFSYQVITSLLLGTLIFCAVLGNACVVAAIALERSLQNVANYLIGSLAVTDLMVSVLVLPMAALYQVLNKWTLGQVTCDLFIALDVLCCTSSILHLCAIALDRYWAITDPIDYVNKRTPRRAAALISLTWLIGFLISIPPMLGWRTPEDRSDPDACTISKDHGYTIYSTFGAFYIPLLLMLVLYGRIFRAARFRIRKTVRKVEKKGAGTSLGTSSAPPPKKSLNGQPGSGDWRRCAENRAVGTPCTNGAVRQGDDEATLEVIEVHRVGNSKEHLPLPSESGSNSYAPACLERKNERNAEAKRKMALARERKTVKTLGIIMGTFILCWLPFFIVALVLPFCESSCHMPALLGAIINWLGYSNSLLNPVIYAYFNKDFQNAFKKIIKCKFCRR
Test description: Affinity for Serotonin 1A receptor, 3H-8-OH-DPAT binding test (rat hippocampus synaptosome membranes)
Particulars: read-out: Binding Profile IC50 5-HT1A; tritiated 8-OH-DPAT 0.2 nM, rat hippocampus, 37° C., 10 minutes
Could you give me the number in nM? Just the number is fine.

The measured IC50 associated with C[C@H]1CN(C)[C@@H]2Cc3c[nH]c4ccc([N+](=O)[O-])c(c34)C=C21 reads 18

GET /value?item= C[C@H]1CN(C)[C@@H]2C[C@@H]3CNc4cccc(c43)C=C21 &field=IC50 returns 6

----------
Measurement target: D2 receptor (Rattus norvegicus, UniProt P61169)
Construct: Freezed corpus striatum dissected out from rats were homogenized; from tissue; host or cells: rat corpus striatum, crude synaptosome membranes
Test description: Affinity for Dopamine 2 (D2) receptor, 3H-Spiperone binding test (rat corpus striatum)
Particulars: read-out: Binding Profile IC50 D2; 3H-Spiperone 0.2 nM, rat corpus striatum, 37° C., 20 minutes
Value kind: pIC50
Hey, just a heads up that pIC50 is the negative log base 10 of the concentration in molar.

Entry C[C@H]1CN(C)[C@@H]2Cc3c[nH]c4ccc([N+](=O)[O-])c(c34)C=C21 — recorded pIC50 = 5.70

----------
Give measured log10(IC50) for each item. Keep answers brief.
Units before log transform: nM; reported quantity: IC50; transform: log10.

Summary line: C[C@H]1CN(C)[C@@H]2Cc3c[nH]c4ccc([N+](=O)[O-])c(c34)C=C21 [Example 42] , 5-HT2 receptor (Rattus norvegicus, UniProt P14842), reported log10(IC50) = 3.27

Given the compound C[C@H]1CN(C)[C@@H]2Cc3c[nH]c4cccc(c34)C=C21 [Example 3] and test system 5-HT2 receptor (Rattus norvegicus, UniProt P14842), the measured log10(IC50) is 2.04

log10(IC50) value, target or system 5-HT2 receptor (Rattus norvegicus, UniProt P14842), for C[C@H]1CN(C)[C@@H]2C[C@@H]3CNc4ccc([N+](=O)[O-])c(c43)C=C21 [Example 40] : 3.09

I looked up C[C@H]1CN(C)[C@@H]2C[C@@H]3CNc4ccc(Br)c(c43)C=C21 [Example 39] and its log10(IC50) for 5-HT2 receptor (Rattus norvegicus, UniProt P14842) was 3.32

Lab entry: 5-HT2 receptor (Rattus norvegicus, UniProt P14842) assay, compound CSc1[nH]c2cccc3c2c1C[C@@H]1C(=C3)[C@@H](C)CN1C [Example 5] , log10(IC50) = 2.90
